Every entry's value here was drawn from ChEMBL document CHEMBL2417454.

TGT: Amine oxidase [flavin-containing] B (Homo sapiens)
Sequence (P27338 whole entry): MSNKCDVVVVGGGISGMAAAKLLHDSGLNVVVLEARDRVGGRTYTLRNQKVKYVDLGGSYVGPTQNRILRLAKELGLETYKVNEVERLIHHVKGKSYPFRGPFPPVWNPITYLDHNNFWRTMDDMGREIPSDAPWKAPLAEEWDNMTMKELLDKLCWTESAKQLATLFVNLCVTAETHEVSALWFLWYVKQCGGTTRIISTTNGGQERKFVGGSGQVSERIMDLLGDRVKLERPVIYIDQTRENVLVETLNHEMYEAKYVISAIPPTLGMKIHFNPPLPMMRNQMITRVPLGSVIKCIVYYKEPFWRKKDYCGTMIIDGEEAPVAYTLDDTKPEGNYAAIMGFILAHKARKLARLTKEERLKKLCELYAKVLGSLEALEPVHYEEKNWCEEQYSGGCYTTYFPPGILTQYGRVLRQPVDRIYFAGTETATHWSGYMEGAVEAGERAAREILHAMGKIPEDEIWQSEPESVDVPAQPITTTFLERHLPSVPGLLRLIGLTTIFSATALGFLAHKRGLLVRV
EXPERIMENTAL_PROTOCOL: Inhibition of human recombinant MAO-B using benzylamine hydrochloride as substrate assessed as H2O2 synthesis at 10 uM after 1 hr by fluorescence assay
SETUP_CONDITIONS: read-out: INH
METRIC: inhibition at 10 µM (%)

Please review the entries below; each comes with its answer.
CPD_SMILES | TGT | inhibition at 10 µM / %
CN(Cc1ccccc1)c1ccc2nc(-c3ccccc3)oc2n1 | Amine oxidase [flavin-containing] B (Homo sapiens) | 3.7
Clc1cccc(-c2nc3ccc(N4CCCCC4)nc3o2)c1 | Amine oxidase [flavin-containing] B (Homo sapiens) | 91.7
Fc1ccccc1-c1nc2ccc(N3CCCCC3)nc2o1 | Amine oxidase [flavin-containing] B (Homo sapiens) | 94.9

[A] Clc1ccc(-c2nc3ccc(N4CCCCC4)nc3o2)cc1
[B] CNc1ccc2nc(-c3ccccc3)oc2n1
[in] Quick one: lower inhibition at 10 µM, A or B ? Selection: enter the item's label.
[out] B
(B: 19%, A: 69.8%)
